target: HMGCR (TM1-8)-GFP (Cricetulus griseus, UniProt P00347); experiment: HMGCR (TM1-8)-GFP fluorescent assay (high-content imaging) in CHG cells; details: read-out: Mean (HMGCR (TM1-8)-GFP signal relative to 0 μM = 100)
Would you kindly list remaining activity at 10 µM for each of these compounds?
Give bare numbers, in %.

Completed entries (count: 4):
INSERT INTO measurements (compound, outcome_measure, reported_result) VALUES
  ('CC(O)CC[C@@H](C)C1CCC2C3C(CC[C@@]21C)[C@@]1(C)CC[C@H](O)C(C)(C)C1=C[C@@H]3O (some centres unmarked) [Compound 63]', 'remaining activity at 10 µM', 21),
  ('CCC(O)CCCCC[C@@H](C)C1CCC2C3C(CC[C@@]21C)[C@@]1(C)CC[C@H](O)C(C)(C)C1=C[C@@H]3O (some centres unmarked) [Compound 125]', 'remaining activity at 10 µM', 33.6),
  ('C=CCC(O)(CC=C)CCCCC[C@@H](C)C1CCC2C3C(CC[C@@]21C)[C@@]1(C)CC[C@H](O)C(C)(C)C1=C[C@@H]3O (some centres unmarked) [Compound 119]', 'remaining activity at 10 µM', 28.9),
  ('CCC(O)(CC)CCC[C@@H](C)C1CCC2C3C(CC[C@@]21C)[C@@]1(C)CC[C@H](O)C(C)(C)C1=C[C@@H]3O (some centres unmarked) [Compound 80]', 'remaining activity at 10 µM', 10.3);

Query :: Would you mind telling me what remaining activity at 10 µM value was observed for C=CCC(O)CC[C@@H](C)C1CCC2C3C(CC[C@@]21C)[C@@]1(C)CC[C@H](O)C(C)(C)C1=C[C@@H]3O (some centres unmarked) [Compound 65] ?
Result :: 14

* * *

Molecular target: HMGCR (TM1-8)-GFP (Cricetulus griseus)
Sequence (P00347 1-346): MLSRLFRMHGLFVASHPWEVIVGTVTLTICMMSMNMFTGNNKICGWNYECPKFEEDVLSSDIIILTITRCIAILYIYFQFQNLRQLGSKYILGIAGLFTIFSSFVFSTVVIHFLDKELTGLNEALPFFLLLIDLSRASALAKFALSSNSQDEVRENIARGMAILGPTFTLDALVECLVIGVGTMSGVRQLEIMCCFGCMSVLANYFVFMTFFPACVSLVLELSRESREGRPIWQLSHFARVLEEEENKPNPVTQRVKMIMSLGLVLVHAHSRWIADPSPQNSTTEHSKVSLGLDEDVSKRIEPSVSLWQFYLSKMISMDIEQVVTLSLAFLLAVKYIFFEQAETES
Experiment: HMGCR (TM1-8)-GFP fluorescent assay (high-content imaging) in CHG cells
Details: read-out: Mean (HMGCR (TM1-8)-GFP signal relative to 0 μM = 100)
Would you kindly list remaining activity at 5 µM for each of these compounds?
One number for each entry, in %.

INSERT INTO measurements (compound, reported_result) VALUES
  ('C=CCC(O)CCCC[C@@H](C)C1CCC2C3C(CC[C@@]21C)[C@@]1(C)CC[C@H](O)C(C)(C)C1=C[C@@H]3O (some centres unmarked) [Compound 109]', 18.8),
  ('COC(=O)CC[C@@H](C)C1CCC2C3C(CC[C@@]21C)[C@@]1(C)CC[C@H](O)C(C)(C)C1=C[C@@H]3O (some centres unmarked) [Compound 49]', 58.3),
  ('CC(O)CC[C@@H](C)C1CCC2C3C(CC[C@@]21C)[C@@]1(C)CC[C@H](O)C(C)(C)C1=C[C@@H]3O (some centres unmarked) [Compound 63]', 37.4),
  ('C=CCC(O)CCCCC[C@@H](C)C1CCC2C3C(CC[C@@]21C)[C@@]1(C)CC[C@H](O)C(C)(C)C1=C[C@@H]3O (some centres unmarked) [Compound 126]', 45.5),
  ('C[C@H](CCCCO)C1CCC2C3C(CC[C@@]21C)[C@@]1(C)CC[C@H](O)C(C)(C)C1=C[C@@H]3O (some centres unmarked) [Compound 74]', 44.4),
  ('COC(=O)CCC[C@@H](C)C1CCC2C3C(CC[C@@]21C)[C@@]1(C)CC[C@H](O)C(C)(C)C1=C[C@@H]3O (some centres unmarked) [Compound 72]', 56.3);

Would you be so kind as to report remaining activity at 5 µM for each listed record?
1. C[C@H](CCCO)C1CCC2C3C(CC[C@@]21C)[C@@]1(C)CC[C@H](O)C(C)(C)C1=C[C@@H]3O (some centres unmarked) [Compound 51]
2. CCC(O)(CC)CCC[C@@H](C)C1CCC2C3C(CC[C@@]21C)[C@@]1(C)CC[C@H](O)C(C)(C)C1=C[C@@H]3O (some centres unmarked) [Compound 80]
3. C[C@H](CCCC(=O)O)C1CCC2C3C(CC[C@@]21C)[C@@]1(C)CC[C@H](O)C(C)(C)C1=C[C@@H]3O (some centres unmarked) [Compound 73]
4. CC(O)CCC[C@@H](C)C1CCC2C3C(CC[C@@]21C)[C@@]1(C)CC[C@H](O)C(C)(C)C1=C[C@@H]3O (some centres unmarked) [Compound 86]

Result ::
[67.8, 12.1, 87.2, 28.4]

* * *

Parameter DC50, tested on HMGCR (TM1-8)-GFP (Cricetulus griseus, UniProt P00347), listed per item.
One number for each entry, in nM.

Completed entries (count: 5):
INSERT INTO results (molecule, outcome_measure, display_unit, reported_result) VALUES
  ('C[C@H](CCCCCC(C)(C)O)C1CCC2C3C(CC[C@@]21C)[C@@]1(C)CC[C@H](O)C(C)(C)C1=C[C@@H]3O (stereo partly shown) [Compound 117]', 'DC50', 'nM', 710),
  ('COC(=O)CCC[C@@H](C)C1CCC2C3C(CC[C@@]21C)[C@@]1(C)CC[C@H](O)C(C)(C)C1=C[C@@H]3O (stereo partly shown) [Compound 72]', 'DC50', 'nM', 6770),
  ('COCCCCC[C@@H](C)C1CCC2C3C(CC[C@@]21C)[C@@]1(C)CC[C@H](O)C(C)(C)C1=C[C@@H]3O (stereo partly shown) [Compound 95]', 'DC50', 'nM', 2340),
  ('C=CCC(O)CC[C@@H](C)C1CCC2C3C(CC[C@@]21C)[C@@]1(C)CC[C@H](O)C(C)(C)C1=C[C@@H]3O (stereo partly shown) [Compound 65]', 'DC50', 'nM', 2330),
  ('CCC(O)CCCCC[C@@H](C)C1CCC2C3C(CC[C@@]21C)[C@@]1(C)CC[C@H](O)C(C)(C)C1=C[C@@H]3O (stereo partly shown) [Compound 125]', 'DC50', 'nM', 1830);

Would you be so kind as to report DC50 for each listed record?
1. C[C@H](CCCCCCO)C1CCC2C3C(CC[C@@]21C)[C@@]1(C)CC[C@H](O)C(C)(C)C1=C[C@@H]3O (stereo partly shown) [Compound 113]
2. CCC(O)(CC)CC[C@@H](C)C1CCC2C3C(CC[C@@]21C)[C@@]1(C)CC[C@H](O)C(C)(C)C1=C[C@@H]3O (stereo partly shown) [Compound 57]

Result ::
1. 1720
2. 1750

* * *

Would you kindly list remaining activity at 0.3 µM for each of these compounds?
molecular target: HMGCR (TM1-8)-GFP (Cricetulus griseus); test: HMGCR (TM1-8)-GFP fluorescent assay (high-content imaging) in CHG cells; settings: 16 h, read-out: HMGCR (TM1-8)-GFP fluorescent intensity, mean
One number for each entry, in %.

Completed entries (count: 3):
INSERT INTO measurements (compound, tested_system, outcome_measure, reported_result) VALUES
  ('CCC1(CCOC)C2=CCC3C(CCC4(C)C(C(C)CCCC(C)C)CCC34)C2(C)CCC1O (centres unmarked) [Compound 11]', 'HMGCR (TM1-8)-GFP (Cricetulus griseus)', 'remaining activity at 0.3 µM', 97.1),
  ('CC(C)CCC[C@@H](C)[C@H]1CCC2C3C(=O)C=C4C(C)(C)[C@@H](O)CC[C@]4(C)C3CC[C@@]21C (some centres unmarked) [Compound 33]', 'HMGCR (TM1-8)-GFP (Cricetulus griseus)', 'remaining activity at 0.3 µM', 97.3),
  ('C=CCC1(CC=C)C2=CCC3C(CC[C@@]4(C)C3CC[C@@H]4[C@H](C)CCCC(C)C)[C@@]2(C)CC[C@@H]1O (some centres unmarked) [Compound 9]', 'HMGCR (TM1-8)-GFP (Cricetulus griseus)', 'remaining activity at 0.3 µM', 92.7);

Would you be so kind as to report remaining activity at 0.3 µM for each listed record?
1. CC(C)CCC[C@@H](C)[C@H]1CC[C@H]2[C@@H]3CC=C4C(C)(C)[C@@H](O)CC[C@]4(C)[C@H]3CC[C@]12C [Compound 7, 4,4-Dimethyl cholesterol]
2. CC(C)CCC[C@@H](C)[C@H]1CCC2C3CC=C4C5(CCCCC5)[C@@H](O)CC[C@]4(C)C3CC[C@@]21C (some centres unmarked) [Compound 10]
3. CC(C)CCC[C@@H](C)[C@H]1CC[C@H]2[C@@H]3CC=C4C[C@@H](O)CC[C@]4(C)[C@H]3CC[C@]12C [Cholesterol]

Result ::
92.8
106
88.9

Would you be so kind as to report remaining activity at 0.3 µM for each listed record?
1. CC(=O)N[C@@H]1C=C2C(C)(C)[C@@H](O)CC[C@]2(C)C2CC[C@@]3(C)C(CC[C@@H]3[C@H](C)CCCC(C)C)C21 (some centres unmarked) [Compound 22]
2. CC(C)CCC[C@@H](C)[C@H]1CCC2C3C(CC[C@@]21C)[C@@]1(C)CC[C@H](O)C(C)(C)C1=C[C@H]3N=[N+]=[N-] (some centres unmarked) [Compound 18]
3. CC(C)CCC[C@@H](C)[C@H]1CCC2C3C(CC[C@@]21C)[C@@]1(C)CC[C@H](O)C(C)(C)C1=C[C@H]3O (some centres unmarked) [Compound 36]

Result ::
1: 91.4; 2: 103; 3: 91.3

Would you be so kind as to report remaining activity at 0.3 µM for each listed record?
1. CC(C)CCC[C@@H](C)[C@H]1CCC2C3C(=NO)C=C4C(C)(C)[C@@H](O)CC[C@]4(C)C3CC[C@@]21C (some centres unmarked) [Compound 34]
2. CC(C)CCC[C@@H](C)[C@H]1CCC2C3C(CC[C@@]21C)[C@@]1(C)CC[C@H](O)C(C)(C)C1=C[C@H]3N (some centres unmarked) [Compound 19]

Result ::
93.6
107

Would you be so kind as to report remaining activity at 0.3 µM for each listed record?
1. COCCC1(CCOC)C2=CCC3C(CC[C@@]4(C)C3CC[C@@H]4[C@H](C)CCCC(C)C)[C@@]2(C)CC[C@@H]1O (some centres unmarked) [Compound 14]
2. CC(C)CCC[C@@H](C)[C@H]1CC[C@H]2[C@@H]3[C@@H](O)C=C4C(C)(C)[C@@H](O)CC[C@]4(C)[C@H]3CC[C@]12C [Compound 35, 4,4-Dimethyl 7β-hydroxyl cholesterol]

Result ::
[107, 83.8]

Query :: Find remaining activity at 0.3 µM (HMGCR (TM1-8)-GFP (Cricetulus griseus)) for the entry CCC1(CC)C2=CCC3C(CC[C@@]4(C)C3CC[C@@H]4[C@H](C)CCCC(C)C)[C@@]2(C)CC[C@@H]1O (some centres unmarked) [Compound 8]
Result :: 79.5
